- Tested on: Salmonella typhimurium
- measurement notes: Mutagenicity in Salmonella typhimurium TA100 assessed as mutagenic index at 500 ug/plate by Ames test
- Format: toxicity, organism-based
- condition notes: salmonella enterica subsp. enterica serovar typhimurium
Activity_index: recorded values
measure: Activity_index

compound	result value
O=C(/C=C/c1ccccc1)N[C@H]1CCCC[C@@H]1O (racemic)	1
CCC(CO)NC(=O)/C=C/c1ccccc1 (racemic)	0.9
CC(O)CNC(=O)/C=C/c1ccccc1 (racemic)	0.8
CC(C)C(CO)NC(=O)/C=C/c1ccccc1 (racemic)	1
CCC(O)CNC(=O)/C=C/c1ccccc1 (racemic)	0.8
CC(CO)NC(=O)/C=C/c1ccccc1 (racemic)	0.8
O=C(/C=C/c1ccccc1)N1CCC(O)CC1	0.9

* * *

- Test system: Salmonella typhimurium
- measurement notes: Mutagenicity in Salmonella typhimurium TA98 assessed as number of revertants at 1000 ug/plate by Ames test (reference value: 23 +/- 3)
- Format: toxicity, organism-based
- condition notes: salmonella enterica subsp. enterica serovar typhimurium
Reported Activity values for the following compounds.

compound	Activity
CCC(O)CNC(=O)/C=C/c1ccccc1 (racemic)	25
CCC(CO)NC(=O)/C=C/c1ccccc1 (racemic)	19
O=C(/C=C/c1ccccc1)N1CCC(O)CC1	20
O=C(/C=C/c1ccccc1)N[C@H]1CCCC[C@@H]1O (racemic)	18
CC(O)CNC(=O)/C=C/c1ccccc1 (racemic)	24
CC(CO)NC(=O)/C=C/c1ccccc1 (racemic)	18
CC(C)C(CO)NC(=O)/C=C/c1ccccc1 (racemic)	15

* * *

- Test system: Salmonella typhimurium
- measurement notes: Mutagenicity in Salmonella typhimurium TA100 assessed as number of revertants at 1000 ug/plate by Ames test (reference value: 77 +/-4)
- Format: toxicity, organism-based
- condition notes: salmonella enterica subsp. enterica serovar typhimurium

molecule	Activity
CC(CO)NC(=O)/C=C/c1ccccc1 (racemic)	67
CC(O)CNC(=O)/C=C/c1ccccc1 (racemic)	73
CCC(CO)NC(=O)/C=C/c1ccccc1 (racemic)	64
CCC(O)CNC(=O)/C=C/c1ccccc1 (racemic)	72
O=C(/C=C/c1ccccc1)N1CCC(O)CC1	70
O=C(/C=C/c1ccccc1)N[C@H]1CCCC[C@@H]1O (racemic)	70
CC(C)C(CO)NC(=O)/C=C/c1ccccc1 (racemic)	80

* * *

- Test system: Mus musculus
- measurement notes: Anticonvulsant activity in albino Carworth Farms No.1 mouse assessed as protection against maximal electroshock-induced seizures at 300 mg/kg, ip after 0.5 hrs
- Format: functional, organism-based
Calls of active or inactive are those of the source. No cut-off for these calls is given here.
Classes used: active, inactive

compound	answer label
CCC(O)CNC(=O)/C=C/c1ccccc1 (racemic)	active
CC(=O)CNC(=O)/C=C/c1ccccc1	active
CC(C)(CO)NC(=O)/C=C/c1ccccc1	active
O=C(/C=C/c1ccccc1)NCCCCCO	inactive
CC(=O)OC(C)CNC(=O)/C=C/c1ccccc1 (racemic)	active
CC(O)CNC(=O)/C=C/c1ccccc1 (racemic)	active
CC(C)C(CO)NC(=O)/C=C/c1ccccc1 (racemic)	active
CCC(CO)NC(=O)/C=C/c1ccccc1 (racemic)	active
CC(CO)NC(=O)/C=C/c1ccccc1 (racemic)	active
CCC(COC(C)=O)NC(=O)/C=C/c1ccccc1 (stereo not drawn)	inactive
COC(=O)C(NC(=O)/C=C/c1ccccc1)C(C)C (racemic)	active
CC(=O)OCC(C)NC(=O)/C=C/c1ccccc1 (racemic)	active
O=C(/C=C/c1ccccc1)N[C@H]1CCCC[C@@H]1O (racemic)	inactive

* * *

- Tested on: Salmonella typhimurium
- measurement notes: Mutagenicity in Salmonella typhimurium TA1535 assessed as assessed as mutagenic index at 20 ug/plate by Ames test
- Assay type: toxicity, organism-based
- condition notes: salmonella enterica subsp. enterica serovar typhimurium

molecule	assay target	Activity_index
CCC(O)CNC(=O)/C=C/c1ccccc1 (racemic)	Salmonella typhimurium	1.4
CC(C)C(CO)NC(=O)/C=C/c1ccccc1 (racemic)	Salmonella typhimurium	0.6
CC(CO)NC(=O)/C=C/c1ccccc1 (racemic)	Salmonella typhimurium	0.6
O=C(/C=C/c1ccccc1)N1CCC(O)CC1	Salmonella typhimurium	0.6
CCC(CO)NC(=O)/C=C/c1ccccc1 (racemic)	Salmonella typhimurium	0.5
O=C(/C=C/c1ccccc1)N[C@H]1CCCC[C@@H]1O (racemic)	Salmonella typhimurium	1.4
CC(O)CNC(=O)/C=C/c1ccccc1 (racemic)	Salmonella typhimurium	1.3

* * *

- measurement notes: in vitro
- condition notes: human, HepG2 cells
- Description: Hepatotoxicity against human HepG2 cells assessed as cell viability at 50 uM after 24 hrs by trypan blue exclusion assay (Rvb = 97 to 99%)
measure: viability at 24 h, 50 µM (%)

compound	measure	measure unit	result value
CCC(O)CNC(=O)/C=C/c1ccccc1 (racemic)	viability at 24 h, 50 µM	%	92
CC(C)C(CO)NC(=O)/C=C/c1ccccc1 (racemic)	viability at 24 h, 50 µM	%	93
CC(CO)NC(=O)/C=C/c1ccccc1 (racemic)	viability at 24 h, 50 µM	%	96
CC(O)CNC(=O)/C=C/c1ccccc1 (racemic)	viability at 24 h, 50 µM	%	98
COc1cccc2c1C(=O)c1c(O)c3c(c(O)c1C2=O)C[C@@](O)(C(=O)CO)C[C@@H]3O[C@H]1C[C@H](N)[C@H](O)[C@H](C)O1	viability at 24 h, 50 µM	%	75

* * *

- Test system: Salmonella typhimurium
- measurement notes: Mutagenicity in Salmonella typhimurium TA98 assessed as mutagenic index at 500 ug/plate by Ames test
- Assay type: toxicity, organism-based
- condition notes: salmonella enterica subsp. enterica serovar typhimurium
# key: entry, value: Activity_index

compound	assay target	Activity_index
CC(CO)NC(=O)/C=C/c1ccccc1 (racemic)	Salmonella typhimurium	1
CC(O)CNC(=O)/C=C/c1ccccc1 (racemic)	Salmonella typhimurium	0.9
O=C(/C=C/c1ccccc1)N[C@H]1CCCC[C@@H]1O (racemic)	Salmonella typhimurium	0.8
CC(C)C(CO)NC(=O)/C=C/c1ccccc1 (racemic)	Salmonella typhimurium	0.8
CCC(O)CNC(=O)/C=C/c1ccccc1 (racemic)	Salmonella typhimurium	0.7
CCC(CO)NC(=O)/C=C/c1ccccc1 (racemic)	Salmonella typhimurium	0.9
O=C(/C=C/c1ccccc1)N1CCC(O)CC1	Salmonella typhimurium	1

* * *

- System: Salmonella typhimurium
- measurement notes: Mutagenicity in Salmonella typhimurium TA100 assessed as mutagenic index at 4 ug/plate by Ames test
- Type: toxicity, organism-based
- condition notes: salmonella enterica subsp. enterica serovar typhimurium
Activity_index values for the compounds below.
measure: Activity_index

compound	result value
CCC(O)CNC(=O)/C=C/c1ccccc1 (racemic)	0.8
O=C(/C=C/c1ccccc1)N[C@H]1CCCC[C@@H]1O (racemic)	0.9
CC(CO)NC(=O)/C=C/c1ccccc1 (racemic)	0.9
O=C(/C=C/c1ccccc1)N1CCC(O)CC1	0.9
CCC(CO)NC(=O)/C=C/c1ccccc1 (racemic)	0.9
CC(O)CNC(=O)/C=C/c1ccccc1 (racemic)	0.9
CC(C)C(CO)NC(=O)/C=C/c1ccccc1 (racemic)	1.1

* * *

TD50 at 0.5 h: recorded values
- measurement notes: Neurotoxicity in po dosed Sprague-Dawley rat after 0.5 hrs by rotarod test
- Type: toxicity, organism-based
- condition notes: in vivo

compound	TD50 at 0.5 h
CC(O)CNC(=O)/C=C/c1ccccc1 (racemic)	> 500 mg/kg
CCC(O)CNC(=O)/C=C/c1ccccc1 (racemic)	> 500 mg/kg

* * *

Measured Activity by item
- Test system: Salmonella typhimurium
- measurement notes: Mutagenicity in Salmonella typhimurium TA1535 assessed as number of revertants at 1000 ug/plate by Ames test (reference value: 10 +/- 3)
- Type: toxicity, organism-based
- condition notes: salmonella enterica subsp. enterica serovar typhimurium
measure: Activity

compound	result value
O=C(/C=C/c1ccccc1)N[C@H]1CCCC[C@@H]1O (racemic)	6
CC(CO)NC(=O)/C=C/c1ccccc1 (racemic)	6
CCC(O)CNC(=O)/C=C/c1ccccc1 (racemic)	6

* * *

- Tested on: Salmonella typhimurium
- measurement notes: Mutagenicity in Salmonella typhimurium TA1535 assessed as mutagenic index at 1000 ug/plate by Ames test
- Assay type: toxicity, organism-based
- condition notes: salmonella enterica subsp. enterica serovar typhimurium
measure: Activity_index

compound	result value
CC(CO)NC(=O)/C=C/c1ccccc1 (racemic)	0.6
O=C(/C=C/c1ccccc1)N[C@H]1CCCC[C@@H]1O (racemic)	0.6
CCC(O)CNC(=O)/C=C/c1ccccc1 (racemic)	0.6
